tested on: 786-0 renal; assay: NCI-60 one-dose screen, 48 h (100 = growth as untreated, 0 = no growth, -100 = all killed); conditions: 10 µM unless noted
This is part of a sample that, as a whole, favours compounds with a hit. Of some 83,000 tested, about 20% had one in any assay.
metric: growth (%)
Give the value in % but do not write % after it.

The cases that follow already have their growth on record.
molecule	unitOfMeasure	growth
NC1=NC(=O)NC1(c1ccccc1)c1ccccc1	%	135
O=C(Nc1ccc(Nc2ccncc2)cc1)c1ccc([N+](=O)[O-])cc1	%	56.7
COc1ccc(/C=C(/C(=O)c2ccc(Cl)cc2)C(=O)C(F)(F)F)cc1	%	99.1
Nn1c(Nc2ccc(S(=O)(=O)Nc3ncccn3)cc2)nnc(/C=C/c2c(O)ccc3ccccc23)c1=O	%	111
Cc1cc[n+](CCCCCCCCCC[n+]2ccc(C)cc2)cc1	%	97.5

Quick one: growth for Cn1cc(-c2nnc(-c3cn(C)c4ncccc34)s2)c2ccccc21 ? 78.4

// query: CCN1CCN(CC(=O)Nc2nc3ccc(NCc4ccc(Cl)cc4)cc3s2)CC1 73

###

Test system: CAKI-1 renal
Assay: NCI-60 one-dose screen, 48 h
Settings: 10 µM unless noted
Method: Growth inhibition of the CAKI-1 human tumor cell line is measured as a screen for anti-cancer activity. Cells are grown in 96 well plates and exposed to the test compound for 48 hours. Compounds are tested at a single concentration, which is 10^-5 M for most compounds. The reported endpoint is percent growth (GI% or GIPRCNT), where numbers from 0 - 100% represent growth inhibition, and numbers from -100% - 0 represent cell death. For example, a value of 40 represents 60% growth inhibition. […]
Compounds without any hit were thinned out: in the full panel of roughly 83,000, 20% have a hit. Activity calls are given as the source filed them. Rule for the calls: active = growth percent below 10; inactive = the rest.
Please state which outcome applies, choosing from active, inactive

Previously resolved entries follow.
O=C(Nc1ccc(F)cc1)c1ccccc1 inactive
O=C(NNc1ccc(-c2ccccc2)nn1)c1ccccc1 inactive
O=S(=O)(/N=c1/n(-c2ccccc2)nc2n1CCN2C1=NCCN1)c1ccc(-c2ccccc2)cc1 inactive
COc1ccc(OC)c(NC=O)c1 inactive
Nc1cc(C(=O)O)[nH]c(=S)n1 inactive

Returns: the outcome recorded for C=C(C)[C@@H]1CC[C@]2(C(=O)OC)CC[C@]3(C)[C@H](CC[C@@H]4[C@@](C)(CCc5nn[nH]n5)[C@H](C(=C)C)CC[C@]43C)[C@@H]12 in this assay. active

// query: CC[C@]12C=CCN3CC[C@@]4(c5ccc(OC)cc5N(C)[C@H]4[C@@](O)(C(=O)OC)[C@@H]1OC(=O)CCC(=O)O[C@H]1CC[C@H]4[C@@H]5CCC6=CC(=O)CC[C@@H]6[C@H]5CC[C@]14C)[C@@H]32 active

// query: O=C(Nc1ccccc1)Nc1ccc(C(=O)/C=C/c2ccc(N3CCCC3)cc2)cc1 inactive

// query: COc1cc2c(cc1OCCCN1CCN(CCCOc3cc4c(cc3OC)C(=O)N3C[C@H](F)C[C@H]3C=N4)CC1)N=C[C@@H]1C[C@@H](F)CN1C2=O inactive

// query: Fc1ccc(NC(=S)c2ccccc2)cc1 inactive

// query: COc1ccc(C2=C(c3cn(C)c4ccccc34)C(=O)OC2)cc1OC inactive

// query: CN(C)C(=S)Sc1ccc([N+](=O)[O-])cc1[N+](=O)[O-] active

// query: C[C@]12CCc3c(ccc4cc(O)ccc34)[C@@H]1CC[C@H]2O inactive

// query: O=c1[nH]c2cc(Cl)c(Cl)cc2n2cc3ncccc3c12 inactive

// query: COc1ccc(OC)c([N+](=O)[O-])c1C(=O)CNC(C)=O inactive

// query: O=C(CCNCc1ccccc1)c1ccccc1 inactive

// query: COc1ccc2c(c1)c(-c1noc(-c3cn(C)c4ncc(F)cc34)n1)cn2C inactive

// query: O=C(OCc1ccc2c(Cl)cc(Cl)c(O)c2n1)N1CCNCC1 inactive

// query: Cc1nc(-c2ccccc2)sc1CC#N inactive
